- TESTED TARGET: Glutathione peroxidase 1 (Homo sapiens)
- EXPERIMENTAL DETAILS: Primary qHTS Assay for Inhibitors of Recombinant Selenoprotein Glutathione Peroxidase 1 (GPX1) (AID 1845191); note: nearly all actives have a fitted effect of over 65% in size
- MEASUREMENT CONTEXT: recombinant GPX1, GR-coupled NADPH fluorescence, 15 min; series mostly up to 48.8 µM
- Description: Assay Provider: Elias S.J. Arner MD PhD. Department of Medical Biochemistry and Biophysics Karolinska Institutet, Solna, Stockholm, Sweden […] 5; Detection; Fluorescence; ViewLux microplate reader, excitation 340 nm and emission 450 nm. […] 7; Detection; Fluorescence; ViewLux microplate reader, excitation 340 nm and emission 450 nm. […] 5. Initial fluorescence readout (t=0) at 340/450 nm was measured using a ViewLux multimodal detector (PerkinElmer, Waltham, MA). […]
Records with an inconclusive call do not appear. Calls of active or inactive are those of the source. Calls come from the whole dose curve; as a rule, active = well fitted inhibition curve with a large enough effect; inconclusive = small, poorly fitted or top-dose-only effect; inactive = flat fitted curve, though single readings scatter.
Outcome codes: True for active, False for inactive

COMPOUND	LABEL
CCCN(CCc1ccccc1)C1CCc2c(O)cccc2C1 (configuration not stated)	False
COc1cc(C(O)CO)ccc1O (configuration not stated)	False
COc1cc(CNC(=O)CCCCCCC(C)C)ccc1O	False
CC(=O)N[C@@H](Cc1c[nH]c2ccccc12)C(=O)OCc1cc(C(F)(F)F)cc(C(F)(F)F)c1	False
CCN(CC)CCOC(=O)c1cc(Cl)c(N)cc1OC	False
NC(N)=NC(N)=Nc1cccc(Cl)c1	False
c1ccc(C(NCCNC(c2ccccc2)c2ccccc2)c2ccccc2)cc1	False
Cn1c(=O)c2[nH]c(-c3ccc(S(=O)(=O)O)cc3)nc2n(C)c1=O	True
CC1CCN(CC[C@H]2CCCN2S(=O)(=O)c2cccc(O)c2)CC1	False
COCc1nc2c([nH]1)c(=O)n(C)c(=O)n2CC(C)C	False
COc1ccccc1N1CCN(CCCCN2C(=O)c3ccccc3C2=O)CC1	False
O=C(O)Cc1ccc(O)c(O)c1	False
CC(=O)O[C@H]1CC2(C)[C@@H](C[C@@H](O)[C@H]3[C@@]4(C)CC[C@@H](O)[C@@H](C)[C@@H]4CC[C@@]32C)C1=C(CCC=C(C)C)C(=O)O (some centres not stated)	False
NC(=O)c1ccccc1	False
CCCCCC[C@@H]([C@@H](C)O)n1cnc2c(N)ncnc21	False
CC(N)=O	False
CCCCCCCCCCC/C=C\C(C)(C)/C=C\CCCC(=O)O	False

---

- EXPERIMENTAL DETAILS: Validation qHTS assay for inhibitors of Activation Induced Cytidine Deaminase (AID): UDG Counterscreen signal (AID 1347427)
- MEASUREMENT CONTEXT: biochemical UDG counterscreen, fluorescence signal; series mostly up to 115 µM
- Source text: Assay Provider (PI) Patricia Gearhart Ph.D. National Institute on Aging National Institute of Health (NIH), Bethesda, MD Assay Provider (PI) Rahul Kohli Ph.D. Perelman School of Medicine University of Pennsylvania, Philadelphia, PA […] A FRET based analysis of cytosine deamination, was developed to identify potential inhibitors of AID catalytic activity. This screen has two signal output, Read 1 evaluates the AID inhibition response. […]
Calls of active or inactive are those of the source. Calls follow the shape of the dose curve; as a rule, active = well fitted curve in the direction sought with a large enough effect; inconclusive = small, poorly fitted or top-dose-only effect, or another doubt; inactive = no such curve, though single readings can be large or run the other way.
PROPERTY LABEL: outcome

COMPOUND	PROPERTY LABEL	RECORDED RESULT
CCCCOc1cc(CC2CNC(=O)N2)ccc1OC (stereo not drawn)	outcome	inactive
N[C@@H](Cc1ccc(O)c(I)c1)C(=O)O	outcome	inactive
COc1ccc(-c2cc3ncc(C)n3c(Nc3ncccc3C(N)=O)n2)cc1OC	outcome	inactive
